Test: Metabolic stability in rat liver microsomes at 20 uM after 30 mins in presence of NADPH by reverse phased HPLC relative to control
Type: ADME, Microsome
Details: read-out: Stability
Measure: remaining at 0.5 h, 20 µM

CCCCCCCCc1ccc(OCC(=O)COc2ccc3c(c2)cc(C(=O)O)n3CCCCCC(=O)O)cc1 ... < 5%
CCCCCCCCc1ccc(OCC(=O)COc2ccc3[nH]c(C(=O)O)cc3c2)cc1 ... < 5%
CCCCCCCCc1ccc(OCC(=O)COc2ccc3c(c2)cc(C(=O)O)n3Cc2ccc(C(=O)O)cc2)cc1 ... 15%
CCCCCCCCc1ccc(OCC(=O)COc2ccc3c(c2)cc(C(=O)O)n3CCC)cc1 ... < 5%
CCCCCCCCc1ccc(OCC(=O)COc2ccc3c(c2)cc(C(=O)O)n3CC(=O)O)cc1 ... 18%

Record CCCCCCCCc1ccc(OCC(=O)COc2ccc3c(c2)cc(C(=O)O)n3CCCCCC)cc1 , field remaining at 0.5 h, 20 µM: < 5%

Record CCCCCCCCc1ccc(OCC(=O)COc2ccc3c(c2)cc(C(=O)O)n3Cc2ccccc2)cc1 , field remaining at 0.5 h, 20 µM: < 5%

Record CCCCCCCCc1ccc(OCC(=O)COc2ccc3c(c2)cc(C(=O)O)n3C)cc1 , field remaining at 0.5 h, 20 µM: < 5%

Record CCCCCCCCc1ccc(OCC(=O)COc2ccc3c(c2)cc(C(=O)O)n3CCCC(=O)O)cc1 , field remaining at 0.5 h, 20 µM: < 5%

Record CCCCCCCCc1ccc(OCC(=O)COc2ccc3c(c2)cc(C(=O)O)n3CCN(C)C)cc1 , field remaining at 0.5 h, 20 µM: 9%

====

Molecular target: Cytosolic phospholipase A2 (Homo sapiens, UniProt P47712)
Sequence (P47712 whole entry): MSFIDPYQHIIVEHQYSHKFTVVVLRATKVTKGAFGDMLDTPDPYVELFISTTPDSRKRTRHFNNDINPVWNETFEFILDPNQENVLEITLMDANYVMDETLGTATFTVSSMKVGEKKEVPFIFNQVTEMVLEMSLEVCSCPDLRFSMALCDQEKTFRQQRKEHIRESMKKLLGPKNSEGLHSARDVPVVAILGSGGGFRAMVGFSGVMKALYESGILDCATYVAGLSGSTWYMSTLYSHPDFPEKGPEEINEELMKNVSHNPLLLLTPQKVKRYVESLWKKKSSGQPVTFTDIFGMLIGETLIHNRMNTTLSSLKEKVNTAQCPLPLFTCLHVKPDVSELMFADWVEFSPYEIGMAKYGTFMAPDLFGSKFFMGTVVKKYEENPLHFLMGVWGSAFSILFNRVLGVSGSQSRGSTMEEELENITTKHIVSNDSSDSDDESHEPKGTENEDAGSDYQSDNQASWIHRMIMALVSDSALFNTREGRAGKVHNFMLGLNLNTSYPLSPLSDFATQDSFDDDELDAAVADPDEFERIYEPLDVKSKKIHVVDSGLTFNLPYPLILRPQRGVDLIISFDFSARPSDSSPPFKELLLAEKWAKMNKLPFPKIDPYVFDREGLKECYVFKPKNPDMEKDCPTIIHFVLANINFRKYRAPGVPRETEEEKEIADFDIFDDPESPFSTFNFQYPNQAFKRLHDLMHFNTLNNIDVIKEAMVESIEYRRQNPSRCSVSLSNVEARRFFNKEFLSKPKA
Assay: Inhibition of human platelet cPLA2-alpha activity
Measure: pIC50
For clarity, pIC50 is expressed as the negative log10 of concentration in mol/L.

Record CCCCCCCCc1ccc(OCC(=O)COc2ccc3c(c2)cc(C(=O)O)n3CC(=O)O)cc1 , field pIC50: 6.52

Record CCCCCCCCc1ccc(OCC(=O)COc2ccc3[nH]c(C(=O)O)cc3c2)cc1 , field pIC50: 5.48

Record CCCCCCCCc1ccc(OCC(=O)COc2ccc3c(c2)cc(C(=O)O)n3CCCCCC(=O)O)cc1 , field pIC50: 6.22

Record CCCCCCCCc1ccc(OCC(=O)COc2ccc3c(c2)cc(C(=O)O)n3Cc2ccc(C(=O)O)cc2)cc1 , field pIC50: 5.82

Record CCCCCCCCc1ccc(OCC(=O)COc2ccc3c(c2)cc(C(=O)O)n3CCC)cc1 , field pIC50: 5.68

Record CCCCCCCCc1ccc(OCC(=O)COc2ccc3c(c2)cc(C(=O)O)n3Cc2ccccc2)cc1 , field pIC50: 5.00

Record CCCCCCCCc1ccc(OCC(=O)COc2ccc3c(c2)cc(C(=O)O)n3CCCC(=O)O)cc1 , field pIC50: 6.40

Record CCCCCCCCc1ccc(OCC(=O)COc2ccc3c(c2)cc(C(=O)O)n3C)cc1 , field pIC50: 5.92

====

Below, each entry is listed alongside its reported IC50.
Target: UniProt P47712
Assay: Inhibition of cPLA2-alpha in TPA-stimulated intact human platelets assessed as liberation of arachidonic acid after 60 mins
Reply with the number, then its unit.

// known answers, use as guide
CCCCCCCCc1ccc(OCC(=O)COc2ccc3c(c2)cc(C(=O)O)n3CC(=O)O)cc1 ... 1300 nM
CCCCCCCCc1ccc(OCC(=O)COc2ccc3c(c2)cc(C(=O)O)n3CCCCCC(=O)O)cc1 ... 500 nM
CCCCCCCCc1ccc(OCC(=O)COc2ccc3c(c2)cc(C(=O)O)n3CCCC(=O)O)cc1 ... 300 nM

Record CCCCCCCCc1ccc(OCC(=O)COc2ccc3c(c2)cc(C(=O)O)n3C)cc1 , field IC50: 600 nM
